Values from patent US20130225548A1

EXPERIMENTAL_SYSTEM: Syk tyrosine kinase (Homo sapiens)
Construct: purchased Carna Biosciences, Inc
METHOD: Test for Syk tyrosine kinase inhibitory activity (ELISA)
Assay type: biochemical
MEASUREMENT_CONTEXT: Syk tyrosine kinase (Carna Biosciences), 25 μM ATP in substrate solution, 30° C. 1 hour, n=2; read-out: Evaluation (IC50, concentration inhibiting the tyrosine kinase activity at 50%)
pIC50: −log10 of the molar value. Where a name gives a salt, the structure may show the parent alone.

# COMPOUND, pIC50
rows = [
    ("N#Cc1ccnc(Nc2cc(C3CC3)cc(-c3ccc4ncn(Cc5ccc(=O)[nH]c5)c4c3)n2)c1 [Example 174, hydrochloride]", "7.30 to 8.30"),
    ("CCn1cnc2cc(-c3cc(C4CC4)cc(Nc4cc(C#N)ccn4)n3)ccc21 [Example 149, hydrochloride]", "6.30 to 7.30"),
    ("COC(=O)CCn1cnc2ccc(-c3cc(C4CC4)cc(Nc4cc(C#N)ccn4)n3)cc21 [Example 126, hydrochloride]", "6.30 to 7.30"),
    ("CNC1CCN(c2ccc(-c3cc(C4CC4)cc(Nc4cc(C#N)ccn4)n3)cn2)CC1 [Example 29, dihydrochloride]", "7.30 to 8.30"),
    ("Cc1cc(N2CCS(=O)(=O)CC2)ncc1-c1cc(C2CC2)cc(Nc2cc(C#N)ccn2)n1 [Example 155, hydrochloride]", "7.30 to 8.30"),
    ("N#Cc1ccnc(Nc2cc(C3CC3)cc(-c3ccc4ncn([C@H]5CC[C@H](O)CC5)c4c3)n2)c1 [Example 122, hydrochloride]", "> 8.30"),
]

---

pIC50: −log10 of the molar value. Structures can show the parent of a compound that is named as a salt.
pIC50 data for Syk tyrosine kinase (Homo sapiens, UniProt P43405) follow.

# MOLECULE, pIC50
records = [
    ("CN(C)CCOc1cncc(-c2cc(C3CC3)cc(Nc3cc(C#N)ccn3)n2)c1 [Example 107, hydrochloride]", "7.30 to 8.30"),
    ("N#Cc1ccnc(Nc2cc(C3CC3)cc(-c3ccc(NCCO)nc3)n2)c1 [Example 2, hydrochloride]", "7.30 to 8.30"),
    ("N#Cc1ccnc(Nc2cc(C3CC3)cc(-c3ccc4ncn([C@H]5CC[C@@H](O)CC5)c4c3)n2)c1 [Example 145, hydrochloride]", "7.30 to 8.30"),
    ("CN1CCC(Oc2cncc(-c3cc(C4CC4)cc(Nc4cc(C#N)ccn4)n3)c2)CC1 [Example 99, hydrochloride]", "> 8.30"),
]
